System: Rhesus Monkeys
assay-summary: Template bleed times in rhesus monkeys
Format: in vivo, rhesus monkey
test-conditions: 4.0 mg/kg, 2 hr, mean of two animals
property-name: Template Bleed Times, Mean of animals (min)

COc1ccc(NC(=O)c2ccc(C(=N)N(C)C)cc2)c(C(=O)Nc2ccc(Cl)cn2)c1 [Compound A]
1.5

====

System: Rhesus Monkeys
assay-summary: Template bleed times in rhesus monkeys
Assay type: in vivo, rhesus monkey
test-conditions: 7.5 mg/kg, 24 hr, mean of two animals
property-name: Template Bleed Times, Mean of animals

COc1ccc(NC(=O)c2ccc(C(=N)N(C)C)cc2)c(C(=O)Nc2ccc(Cl)cn2)c1 [Compound A]
2.5 min
